Experiment: qHTS RealTime-Glo MT Cell Viability Assay in HEK293 cells - 32 hour (AID 1224868); further: nearly all actives have a fitted effect of over 50% in size
Settings: RealTime-Glo luminescence; series mostly up to 76.8 µM
Inconclusive results are not listed. The source made the active and inactive calls. The call rests on the fitted dose curve; in most records, active means well fitted cell-killing curve with a large enough effect in the repeat runs; inconclusive means weak or mixed curves, or effect the other way; inactive means flat fitted curve, though single readings scatter.
Outcomes: 1.0 for active, 0.0 for inactive

{"compound": "O=[N+]([O-])c1ccc(CO)cc1", "group": 0.0}
{"compound": "Cc1cc(F)ccc1-c1cc(N2CC[C@@H](O)[C@H]2CO)ncc1N(C)C(=O)C(C)(C)c1cc(C(F)(F)F)cc(C(F)(F)F)c1", "group": 1.0}
{"compound": "O=c1[nH]cccc1O", "group": 0.0}
{"compound": "CCc1cccc(C)c1N(C(=O)CS(=O)(=O)O)C(C)COC (stereo not drawn)", "group": 0.0}
{"compound": "CC1=CC[C@@H](C(C)(C)O)CC1", "group": 0.0}
{"compound": "CC1(C)[C@H]2CC[C@]1(C)C(=O)C2", "group": 0.0}
{"compound": "CC(=O)CC(N)=O", "group": 0.0}
{"compound": "CC(C)C(=O)C(C)C", "group": 0.0}
{"compound": "CN1CCN(c2ccccc2/C=C2\\SCCN(c3ccc(Cl)c(Cl)c3)C2=O)CC1", "group": 1.0}
{"compound": "c1ccc(-c2ccc(C(c3ccccc3)n3ccnc3)cc2)cc1 (stereo not drawn)", "group": 1.0}
{"compound": "Nc1cc([N+](=O)[O-])ccc1Cl", "group": 0.0}
{"compound": "Cc1c(Cl)c(=O)oc2cc(O)ccc12", "group": 1.0}
{"compound": "Oc1ccc(C2(c3ccc(O)c(C4CCCCC4)c3)CCCCC2)cc1C1CCCCC1", "group": 1.0}
